// data source = PubChem BioAssay (NCI)

Tested on: RPMI-8226 leukemia
Assay: NCI-60 one-dose screen, 48 h (100 = growth as untreated, 0 = no growth, -100 = all killed)
Conditions: 10 µM unless noted
Procedure: Growth inhibition of the RPMI-8226 human tumor cell line is measured as a screen for anti-cancer activity. Cells are grown in 96 well plates and exposed to the test compound for 48 hours. Compounds are tested at a single concentration, which is 10^-5 M for most compounds. The reported endpoint is percent growth (GI% or GIPRCNT), where numbers from 0 - 100% represent growth inhibition, and numbers from -100% - 0 represent cell death. For example, a value of 40 represents 60% growth inhibition. […]
Compounds without any hit were thinned out: in the full panel of roughly 83,000, 20% have a hit.
property_label: growth (%)
# number only, unit % dropped from output

Some solved entries appear below for comparison.
molecule: COc1ccc(/C=C/c2cc(N3CCOCC3)c3cc(F)c(F)cc3n2)cc1OC
value_reported: 43.2
//
molecule: COc1ccc(C2NC3=C(CCCC3)C(C#N)(C#N)C2(C#N)C#N)cc1 (centres undefined)
value_reported: 79.9
//
molecule: COc1cccc(/C=C2\SC(N3CCN(c4ccccn4)CC3)=NC2=O)c1
value_reported: 85.8

stdin: Any idea what growth was measured for COc1ccc(Cn2c(SC)nc(=O)n(Cc3ccc(Cl)cc3)c2=O)cc1 ?
stdout: 92.8

stdin: Any idea what growth was measured for CC(=O)Oc1cccc(OC(C)=O)c1OC(C)=O ?
stdout: 105

stdin: Any idea what growth was measured for CCCCCCCCCCCCNC(=S)N/N=C/c1ccc(Cl)c(Cl)c1 ?
stdout: 102

stdin: Any idea what growth was measured for CC(Cc1nnc(SCC(=O)Nc2ccc(I)cc2)n1N)c1ccccc1 (centres undefined) ?
stdout: 59.8

stdin: Any idea what growth was measured for O=c1oc2c([nH]c3ccc4ccccc4c32)c2ccccc12 ?
stdout: 103

stdin: Any idea what growth was measured for O=c1cc(C2NCCc3c2[nH]c2ccccc32)c2c(ccc3ccccc32)o1 (centres undefined) ?
stdout: 73.6
